Cited source for all entries: patent USRE47150

We begin with a simple list: items and their reported variant/wild-type.
Molecular target: T1, human tissue factor pathway inhibitor (TFPI) (human, UniProt P10646 29-304, limits assumed)
T1 construct: bought; also called hTFPI; human TFPI
T1 sequence (looked up): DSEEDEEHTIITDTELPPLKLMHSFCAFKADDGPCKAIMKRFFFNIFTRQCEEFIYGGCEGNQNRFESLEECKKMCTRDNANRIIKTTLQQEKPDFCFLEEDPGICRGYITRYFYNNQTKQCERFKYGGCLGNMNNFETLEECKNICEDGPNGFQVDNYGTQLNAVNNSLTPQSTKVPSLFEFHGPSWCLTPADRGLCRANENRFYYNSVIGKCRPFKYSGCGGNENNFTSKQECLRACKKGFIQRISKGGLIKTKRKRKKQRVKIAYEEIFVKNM
Assay: competitive ELISA
Report as a plain number; the unit ratio is understood.

Check out these entries, answers already filled in.
BINDER | variant/wild-type [ratio]
4B7 HC_S30R HC_S57K (Fab, V domains shown) VH: QVQLQQSGPGLVKPSQTLSLTCAISGDSVRSNSAAWSWIRQSPGRGLEWLGIIYKRKKWYNDYAVSVKSRITINPDTSKNQFSLQLNSVTPEDTAVYYCARWHSDKHWGFDYWGQGTLVTVSS VL: DIVMTQSPLSLPVTPGEPASISCRSSQSLVFSDGNTYLNWYLQKPGQSPQLLIYKGSNRASGVPDRFSGSGSGTDFTLKISRVEAEDVGVYYCQQYDSYPLTFGQGTKVEIKR | 1.6
4B7 HC_G109A LC_D33R (Fab, V domains shown) VH: QVQLQQSGPGLVKPSQTLSLTCAISGDSVSSNSAAWSWIRQSPGRGLEWLGIIYKRSKWYNDYAVSVKSRITINPDTSKNQFSLQLNSVTPEDTAVYYCARWHSDKHWAFDYWGQGTLVTVSS VL: DIVMTQSPLSLPVTPGEPASISCRSSQSLVFSRGNTYLNWYLQKPGQSPQLLIYKGSNRASGVPDRFSGSGSGTDFTLKISRVEAEDVGVYYCQQYDSYPLTFGQGTKVEIKR | 3.8
4B7 HC_D62N (Fab, V domains shown) VH: QVQLQQSGPGLVKPSQTLSLTCAISGDSVSSNSAAWSWIRQSPGRGLEWLGIIYKRSKWYNNYAVSVKSRITINPDTSKNQFSLQLNSVTPEDTAVYYCARWHSDKHWGFDYWGQGTLVTVSS VL: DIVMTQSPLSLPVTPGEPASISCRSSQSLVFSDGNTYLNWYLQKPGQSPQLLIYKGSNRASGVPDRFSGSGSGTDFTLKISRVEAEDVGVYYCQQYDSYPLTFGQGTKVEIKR | 52.3

The recorded variant/wild-type for entry 4B7 HC_H107M LC_F31I (Fab, V domains shown) VH: QVQLQQSGPGLVKPSQTLSLTCAISGDSVSSNSAAWSWIRQSPGRGLEWLGIIYKRSKWYNDYAVSVKSRITINPDTSKNQFSLQLNSVTPEDTAVYYCARWHSDKMWGFDYWGQGTLVTVSS VL: DIVMTQSPLSLPVTPGEPASISCRSSQSLVISDGNTYLNWYLQKPGQSPQLLIYKGSNRASGVPDRFSGSGSGTDFTLKISRVEAEDVGVYYCQQYDSYPLTFGQGTKVEIKR equals 1.7

Record 4B7 HC_H107M (Fab, V domains shown) VH: QVQLQQSGPGLVKPSQTLSLTCAISGDSVSSNSAAWSWIRQSPGRGLEWLGIIYKRSKWYNDYAVSVKSRITINPDTSKNQFSLQLNSVTPEDTAVYYCARWHSDKMWGFDYWGQGTLVTVSS VL: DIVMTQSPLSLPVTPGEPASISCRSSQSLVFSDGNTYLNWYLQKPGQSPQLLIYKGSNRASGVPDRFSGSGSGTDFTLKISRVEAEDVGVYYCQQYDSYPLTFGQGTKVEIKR . Reported variant/wild-type: 8.1
